Hey, just so you know, these numbers are from patent US8399480B2.

target: human β3 adrenergic receptor (Homo sapiens); construct: expressed in transfected cells; host or cells: Chinese hamster ovary (CHO) cells, stably transfected; experiment: Functional assay: cAMP production (LANCE TR-FRET) in CHO cells stably transfected with cloned β3 adrenergic receptor; type: cell-based; settings: Table 5; read-out: Human β3 Functional
Sequence (P13945 whole entry): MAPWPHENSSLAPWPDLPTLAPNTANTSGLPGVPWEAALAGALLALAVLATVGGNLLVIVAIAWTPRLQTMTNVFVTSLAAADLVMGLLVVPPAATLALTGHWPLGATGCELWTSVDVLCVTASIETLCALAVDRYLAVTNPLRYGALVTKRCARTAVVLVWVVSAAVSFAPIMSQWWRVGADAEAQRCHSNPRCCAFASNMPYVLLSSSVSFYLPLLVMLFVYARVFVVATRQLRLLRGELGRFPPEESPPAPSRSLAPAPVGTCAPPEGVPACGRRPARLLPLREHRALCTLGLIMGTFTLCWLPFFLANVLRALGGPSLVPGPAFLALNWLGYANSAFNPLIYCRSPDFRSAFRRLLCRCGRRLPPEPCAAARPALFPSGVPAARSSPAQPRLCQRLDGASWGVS
pEC50: −log10 of the molar value.
Entries and their pEC50 values follow.
quantity-kind: pEC50

                                   compound  reported_value
0  O=C(Nc1ccc(C[C@@H]2CC[C@H]([C@H](O)c3ccccc3)N2)cc1)C1CCc2ccc(=O)[nH]c21 (single isomer, unassigned) [Example 134]    6.00 to 7.00
1  CC(C(=O)Nc1ccc(C[C@@H]2CC[C@H]([C@H](O)c3ccccc3)N2)cc1)n1cccnc1=O (single isomer, unassigned) [Example 161]          > 9.00
2  O=C(Nc1ccc(C[C@@H]2CC[C@H]([C@H](O)c3ccccc3)N2)cc1)C1CCc2sc(Br)nc21 (single isomer, unassigned) [Example 144]    8.00 to 9.00
3  COCCC(C(=O)Nc1ccc(C[C@@H]2CC[C@H]([C@H](O)c3ccccc3)N2)cc1)n1cccn1 (single isomer, unassigned) [Example 223]    8.00 to 9.00
4  Cc1nc2c(s1)CCCC2C(=O)Nc1ccc(C[C@@H]2CC[C@H]([C@H](O)c3ccccc3)N2)cc1 (single isomer, unassigned) [Example 120]    7.00 to 7.96
5  CC(C(=O)Nc1ccc(C[C@@H]2CC[C@H]([C@H](O)c3ccccc3)N2)cc1)n1nncc1C(N)=O (single isomer, unassigned) [Example 198]    7.00 to 7.96
